Reported values of protein stability index for individual entries
B1: SERPINB5 (parent)
chain: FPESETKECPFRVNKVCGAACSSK

- Variants of: B1
- Assay info: protein stability index of a GFP-peptide fusion (GPS, HEK-293T) (PSI 1-6); higher = more stable;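 also: lentivirally expressed fusions sorted by FACS into six bins by GFP to DsRed ratio, PSI derived from sequencing read proportions per bin multiplied by bin number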
- Experimental setup: c terminus: a fixed tail appended
Just the number.

State its protein stability index for this variant: A19K 2.51

Return value of protein stability index for input V16N , no commentary. 2.82

Input C17K , output reported protein stability index. 3.12

Fill in reported protein stability index for this entry: P2C 2.31

Read off the recorded protein stability index for S22L 1.93

Return protein stability index for the following variant: G18P 2.42

Supply measured protein stability index of F1R in your reply. 4.65

// Input: E5R . Output its protein stability index only. 1.9

Consider the variant C21Y . State its measured protein stability index. 2.51
